- Test system: CEM cells HIV-1 protection, formazan growth assay
- Method Description: NCI AIDS Antiviral Assay
Give measured EC50 for each item. Keep answers brief.

So, `C=C1C[C@@H]2O[C@H]3[C@H]4[C@@H](C[C@@H](C)[C@@H](OC(C)=O)[C@H]42)[C@@H](C)CO[C@@]3(C)[C@H](OC(=O)CCCCCCC)C[C@H]1O` ? Its EC50 was > 200 µM

The recorded EC50 for CCOC1(C)Nc2cc(OC)cc3c2N1C(=O)CCS3 (centres undefined) is > 200 µM

Kindly note the recorded EC50 for COc1ccc(/C(=N/NC(N)=O)C(c2ccc(OC)cc2)C2C(=O)Oc3ccccc32)cc1 (centres undefined) , which is > 30.2 µM

Lab book: EC50 of `Cc1ccc(S(=O)(=O)N2c3ccccc3[C@H]3CCc4c([nH]c5ccccc45)[C@H]32)cc1` noted as 35.5 µM

For this compound ( O=C1C(Cl)C(c2cc(Br)cc(Br)c2O)N1n1cnc2ccccc2c1=O (centres undefined) ), measured EC50 is > 10.5 µM

Input C=CCC1(c2ccccc2)Oc2cccnc2-n2cccc2C1=O (centres undefined) . Output EC50: > 200 µM

EC50 measured on `CN1CCN(C(=S)N(C)C(=O)c2ccco2)CC1` = > 933 µM

CC(=O)NC1C(OCc2ccccc2)OC(CO)C(O)C1OCC(=O)N1CCCC1C(=O)N[C@@H](CCC(=O)NCCNCCNc1c2ccccc2nc2cccc([N+](=O)[O-])c12)C(N)=O (some centres undefined) yielded EC50 of > 100 µM

EC50 measured on `Nc1ccc(Nc2nc(F)nc(-c3c4ccccc4c4n3CCS4)n2)cc1` = > 7.24 µM

---

- System: CEM cells HIV-1 protection, formazan growth assay
- Method Description: NCI AIDS Antiviral Assay;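 active = compounds giving half or more protection of infected cells from virus-caused growth loss, again on retest; inactive = the rest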
- Method: The ability of compounds to protect human CEM cells from HIV-1 infection is measured as a screen for new compounds capable of inhibiting the HIV virus. Five concentrations of drug were tested on uninfected and infected cells and cell growth was measured using a soluble formazan assay. […] Compounds that provided at least 50% protection were retested. Compounds that provided at least 50% protection on retest were listed as moderately active. […]
Form entry, call: pick from True = active, False = inactive

In: Per the records of this test, what outcome belongs to `N#C/C(=C\c1ccccc1Cl)c1ccccc1` ?
Out: False

In: Hi, do you know how `N#C/C(=C\n1c(=S)[nH]c2ccc([N+](=O)[O-])cc21)c1nc2ccccc2s1` came out in this test?
Out: False

In: What did this assay record as the result for `CSc1nnc(N(C(C)C)C(C)C)c2nc[nH]c12` ?
Out: False

In: Please indicate how the test categorized `CCOC(=O)c1nc2c(OC)nn(O)cc-2c1Br` .
Out: False

In: # lookup: test call for `CCOC(=O)c1ccc(Nc2cnc3cc(C(F)(F)F)ccc3n2)cc1`
Out: False

In: Assay outcome for `COCC1=C(O)C=C2Oc3c(C(C)=O)c(O)c(C)c(O)c3[C@@]2(C)C1=O` : what was it?
Out: False

In: Record lookup: outcome of this test for CC(O)(C(=O)N(O)c1ccc(Cl)cc1)c1ccc(Cl)cc1 (configuration not stated) ?
Out: False

In: What did this assay record as the result for CC(=O)OCC(c1ccccc1)N1C(=O)C(OC(C)=O)[C@H](OC(C)=O)C1=O (some centres not stated) ?
Out: False

In: Entry `C[C@H](NC1=CC(=O)C(N[C@@H](C)[C@H](O)c2ccccc2)=CC1=O)[C@H](O)c1ccccc1` : call = ?
Out: False

In: Per the assay record, what outcome was assigned to `CCN(CC)CCOc1ccc(/C(C#N)=C/c2cccc3ccccc23)cc1` ?
Out: False

In: Record request — test call for `O=C(O)c1cc2ccccc2c(N=Nc2ccc(/C=C/c3ccc(N=Nc4c(O)c(C(=O)O)cc5ccccc45)cc3S(=O)(=O)O)c(S(=O)(=O)O)c2)c1O`
Out: True

In: Hi, sorry to bother you, what did the test record for CCCC/C=C(/C(O)[C@]1(C)OC(=O)N2CCC[C@H]21)[Si](C)(C)C (some centres not stated) ?
Out: False

In: Please indicate how the test categorized `CC1=C(C(=O)Nc2cc(=O)n(C)c(=O)n2C)C(c2ccc([N+](=O)[O-])cc2)C(C(=O)Nc2cc(=O)n(C)c(=O)n2C)=C(C)N1` .
Out: False

In: Dear all, I need the recorded test outcome for `C/C(CC(=O)Nc1ccc(NC(=O)C/C(C)=N\NC(N)=O)cc1)=N/NC(N)=O` , thank you.
Out: False

In: Write down the call the test reported for this molecule. Item: `c1ccc(SCc2ccc3c(c2)OCO3)cc1`
Out: False

In: Which outcome was entered for the molecule `CC(=O)N=C1N(/C=C2\C(=O)Oc3ccccc3C2=O)C(=O)/C(=C/c2ccc(NC(C)=O)cc2)N1C` in this test?
Out: False

In: Per the assay record, what outcome was assigned to `N#Cc1nc(CCCCCN2C(=O)c3ccccc3C2=O)oc1N` ?
Out: False

In: For `CCOc1ccc(NC(=O)CCc2nnc(SC)o2)cc1` , which call appears in the assay record?
Out: False

In: Hey, what did the test say about `COC(=O)NNC(c1ccc(Cl)cc1)c1ccc(Cl)cc1` ?
Out: False

In: Please let me know the test result on file for `CN(C)/N=C(/CC(O)(C(F)(F)F)C(F)(F)F)c1ccc([N+](=O)[O-])cc1` .
Out: False

In: Fill in: this test's call for `CN(C)c1ccc(/C=C(\NC(=O)c2ccccc2)c2nc3ccccc3c(=O)o2)cc1` is ___
Out: False

In: Could you please tell me the result logged for CCCCNC(=O)OCCN=C1c2ccccc2C(Br)C(Br)c2ccccc21 (configuration not stated) in this assay?
Out: False

In: In this assay, the call recorded for `N#C/C(=C\c1cccs1)c1ccccc1` was what?
Out: False

In: Kindly provide the recorded test outcome for the following molecule: `C=C(C)CNC1=C(C)C(=O)C2=C(C1=O)[C@H](COC(N)=O)[C@]1(OC)[C@@H]3N[C@@H]3CN21`
Out: False

In: Status in this test for CC(O)C1=CCC2c3[nH]c4ccccc4c3CCN2C1 (configuration not stated) ?
Out: False

In: Short answer needed: outcome of this test for CC(O)CCNc1nnc2c3ccccc3n(C)c2n1 (configuration not stated) ?
Out: False

In: Hi, sorry to bother you, what did the test record for `CN(C)c1ccc(/C=C/c2ccnc3ccccc23)cc1` ?
Out: False

In: Returns: the outcome recorded for `O=NNc1ccc(Sc2ccc(NN=O)cn2)nc1` in this assay.
Out: False

In: I would be grateful if you could indicate the recorded call for CCOC(=O)c1c(C(CC)C(=O)OC(C)C)cc2n(c1=O)Cc1c-2nc2ccccc2c1Cl (configuration not stated) .
Out: False

In: Please share the test call associated with `COc1cccc([C@@]2(O)c3c(ccc(O)c3OC)[C@H]2OC)c1OC` .
Out: False

In: Look up the recorded call for O=C1/C(=C\c2cccc(Oc3ccccc3)c2)S(=O)(=O)C(c2ccccc2)N1c1cccc(Cl)c1 (configuration not stated) in this test.
Out: False

In: Which outcome did this test record for the molecule `CC(/C=C/C(=O)c1sc(C(N)=S)nc1C)=C\c1ccccc1` ?
Out: False

In: GET /call?item= `NCCc1ccc(O)c(O)c1` returns the recorded outcome of this test.
Out: False

In: Write down the call the test reported for this molecule. Item: COC1/C=C\OC2(C)Oc3c(C)c(O)c4c(O)c(c(C=Nc5ccc6ccccc6c5)c(O)c4c3C2=O)NC(=O)/C(C)=C\C=C/C(C)C(O)C(C)C(O)C(C)C(OC(C)=O)C1C (configuration not stated)
Out: False

In: I'd appreciate the recorded outcome for `COc1cc(OC)c(/C=C/c2ccncn2)c(OC)c1` from this test.
Out: False

In: # outcome recorded in this test, key = CC(C)C(NC(=O)OC(C)(C)C)C(=O)N1CC[C@@H](O)[C@H]1C(O)CC(=O)OC(C)(C)C (some centres not stated)
Out: False

In: Which outcome was entered for the molecule `Cc1nn(-c2ccccn2)c2ncnc(N)c12` in this test?
Out: False

In: Could you kindly confirm the outcome this assay logged for `Cc1ccc(-c2n[nH]c(=O)n2N2C(=O)C=CC2=O)cc1` ?
Out: True

In: Fill in: this test's call for `COc1cc(/C=C(\C)c2ccc3c(c2)OCO3)cc(OC)c1OC` is ___
Out: False

In: Each molecule tested received a call. Report the one for CCCCOC(=O)CCC(Nc1nc(Cl)nc(Cl)n1)C(=O)OCCCC (configuration not stated) .
Out: False

In: Record request — test call for `CON(C(=O)OC(C)(C)C)c1ccccc1`
Out: False

In: Entry `Cn1nc(-c2ccc(Cl)c(Cl)c2)nc2c(=O)n(C)c(=O)nc1-2` : call = ?
Out: False
